Run Description: The drug is tested on Bacteroides xylanisolvens strain: DSM18836 for biotransformation. The drug concentrations were measured before and after a 12-h incubation by liquid-chromatography-coupled mass spectrometry (LC–MS)
Condition Label: 2 µM
Property Measured: Bacterial Biotransformation

The examples below pair each entry with its known result.
>>> result("C#C[C@]1(OC(C)=O)CC[C@H]2[C@@H]3CCC4=C/C(=N/O)CC[C@@H]4[C@H]3CC[C@@]21CC [NORGESTIMATE]")
"Compound NOT metabolized"
>>> result("CC[C@H](C)C(=O)O[C@H]1C[C@@H](C)C=C2C=C[C@H](C)[C@H](CC[C@@H]3C[C@@H](O)CC(=O)O3)[C@H]21")
"Compound NOT metabolized"
>>> result("CC1Cc2ccccc2N1NC(=O)c1ccc(Cl)c(S(N)(=O)=O)c1 (centres undefined) [INDAPAMIDE]")
"Compound NOT metabolized"
>>> result("Nc1nnc(-c2cccc(Cl)c2Cl)c(N)n1")
"Compound NOT metabolized"
>>> result("CN1CCN(CC/C=C2/c3ccccc3Sc3ccc(S(=O)(=O)N(C)C)cc32)CC1")
"Compound metabolized"
>>> result("CN(C)C(=O)Oc1cc(OC(=O)N(C)C)cc(C(O)CNC(C)(C)C)c1 (centres undefined)")
"Compound NOT metabolized"
>>> result("CC(C)c1nc(CN(C)C(=O)N[C@H](C(=O)N[C@@H](Cc2ccccc2)C[C@H](O)[C@H](Cc2ccccc2)NC(=O)OCc2cncs2)C(C)C)cs1")
"Compound metabolized"
>>> result("COc1ccc2cc([C@H](C)C(=O)O)ccc2c1")
"Compound NOT metabolized"

Let us move to another entry and its Bacterial Biotransformation.
[Q] Please give the measured Bacterial Biotransformation for this molecule: "Clc1cccc(Cl)c1N=C1NCCN1"
[A] Compound NOT metabolized
